The measured values listed here are drawn from patent US11773129B2.

Biological target: NEU3 (Homo sapiens)
Sequence (Q9UQ49 1-428): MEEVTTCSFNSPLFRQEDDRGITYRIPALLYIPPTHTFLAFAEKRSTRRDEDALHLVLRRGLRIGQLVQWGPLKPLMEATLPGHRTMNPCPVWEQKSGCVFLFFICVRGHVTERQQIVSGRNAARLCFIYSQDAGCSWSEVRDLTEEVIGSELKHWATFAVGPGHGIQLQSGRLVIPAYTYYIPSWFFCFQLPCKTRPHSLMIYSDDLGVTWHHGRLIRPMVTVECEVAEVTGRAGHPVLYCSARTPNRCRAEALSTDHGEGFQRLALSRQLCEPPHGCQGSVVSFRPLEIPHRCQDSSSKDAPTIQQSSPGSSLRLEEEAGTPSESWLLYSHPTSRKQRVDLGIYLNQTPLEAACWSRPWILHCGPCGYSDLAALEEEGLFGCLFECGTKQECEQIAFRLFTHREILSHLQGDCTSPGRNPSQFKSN
Experiment: IC50 inhibition assay using 4MU-NANA as the substrate, NEU3
Format: biochemical
Set-up: MBP (N); made in house; host or cells: E. coli
Settings: 4MU-NANA as the substrate; read-out: IC50 NEU3
pIC50: −log10 of the molar value.

# Compound, Comparative Sign, pIC50
measured = [
    ("CCCCC(C)C(=O)N[C@H]1[C@H]([C@H](O)[C@H](O)CNC(C)=O)OC(C(=O)O)=C[C@@H]1O (mixture of isomers)", ">", 6.00),
    ("COc1ccc(-c2cn(CC(=O)N[C@@H]3C(O)C=C(C(=O)O)OC3C(O)C(O)CO)nn2)cc1 (stereo partly drawn)", "<", 3.30),
    ("CCCCC(C)C(=O)N[C@H]1[C@H]([C@H](O)[C@H](O)CO)OC(C(=O)O)=C[C@@H]1O (mixture of isomers)", ">", 6.00),
    ("CC(=O)N[C@H]1[C@H]([C@H](O)[C@H](O)Cn2cc(-c3ccc(N(C)C)cc3)nn2)OC(C(=O)O)=C[C@@H]1O", "=", 5.03),
    ("CCCCC(=O)NC[C@@H](O)[C@@H](O)[C@@H]1OC(C(=O)O)=C[C@H](O)[C@H]1NC(=O)CC", "<", 3.30),
    ("CC(=O)Nc1cccc(C(=O)NC[C@@H](O)[C@@H](O)[C@@H]2OC(C(=O)O)=C[C@H](O)[C@H]2NC(C)=O)c1", "=", 5.15),
    ("CC(=O)N[C@@H]1C(O)C=C(C(=O)O)OC1C(O)C(O)Cn1cc(-c2ccc(C(=O)O)cc2)nn1 (stereo partly drawn)", "=", 5.96),
    ("CC(=O)Nc1ccc(C(=O)NCCCCC(=O)NC[C@@H](O)[C@@H](O)[C@@H]2OC(C(=O)O)=C[C@H](O)[C@H]2NC(C)=O)cc1", "=", 4.51),
    ("CC(=O)N[C@H]1[C@H]([C@H](O)[C@H](O)CO)OC(C(=O)O)=C[C@@H]1NC(=O)C1CCC1 [25d]", "<", 3.30),
    ("CC(=O)Nc1ccc(-c2cn(CC(=O)N[C@@H]3C(O)C=C(C(=O)O)OC3C(O)C(O)CO)nn2)cc1 (stereo partly drawn)", "<", 3.30),
    ("CC(=O)N[C@@H]1C(O)C=C(C(=O)O)OC1C(O)C(O)CNC(=O)c1ccccc1 (stereo partly drawn)", "=", 4.47),
    ("O=C(O)C1=C[C@H](O)[C@@H](NC(=O)c2ccccc2)[C@H]([C@H](O)[C@H](O)CO)O1", "=", 3.32),
]
